# System: Wnt5a (protein binding on small-molecule microarray)
# Test Name: small molecules binding Wnt5a protein – biophysical, small-molecule microarray, 635/667 nm fluorescence, primary screen (AID 1142);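 note: fluorescence read at 667 nm with signal to noise per printed feature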
# Measurement Parameters: 635 nm fluorescence, higher = more signal
Observable: composite z-score
Answers are plain numbers.

// worked examples, composite z-score included
Compound | composite z-score
O=C1NC(=O)C2C1C=CC(C(O)C1CC=CCC1)N2Nc1ccccn1 (configuration not stated) | 0.524
CCOC(=O)C1=CC[C@@H](c2ccccc2)N(S(=O)(=O)c2ccc(C)cc2)[C@H]1c1ccc(CC)cc1 | 0.074
COc1ccc([Si](C)(C)[C@H]2[C@H](CC(=O)N3CCC[C@H]3CO)O[C@@]3(C(=O)N(Cc4cccc(N5CCOC5=O)c4)c4ccccc43)[C@@H]2C)cc1 | 0.307
COCCCNC(=O)[C@@]1(CCS(=O)(=O)c2ccccc2)N=C(c2ccc(OCCCO)cc2)O[C@H]1c1ccccc1N=[N+]=[N-] | 1.04
CN1C(=O)C2C=CC(C(O)c3c(F)cccc3Cl)N(NC(=O)OC(C)(C)C)C2C1=O (configuration not stated) | 0.213
C=C(CCCC)/C(=C/C[C@@H](OC(C)=O)c1cccc(OCCO)c1)c1cnc2ccccc2c1 | 0.16

Next compound, please.
Would you kindly share the measured composite z-score for CN1C(=O)C2C=CC(C(O)c3ccc(F)cc3)N(N(c3ccccc3)c3ccccc3)C2C1=O (configuration not stated) ? -0.0512
